This listing pairs binders with measured EC50 (nM), AML5 proliferation.
- targetSystem: T1, human FLT3 on the AML5 cell line (human, UniProt P36888 27-993)
- T1 sequence (looked up): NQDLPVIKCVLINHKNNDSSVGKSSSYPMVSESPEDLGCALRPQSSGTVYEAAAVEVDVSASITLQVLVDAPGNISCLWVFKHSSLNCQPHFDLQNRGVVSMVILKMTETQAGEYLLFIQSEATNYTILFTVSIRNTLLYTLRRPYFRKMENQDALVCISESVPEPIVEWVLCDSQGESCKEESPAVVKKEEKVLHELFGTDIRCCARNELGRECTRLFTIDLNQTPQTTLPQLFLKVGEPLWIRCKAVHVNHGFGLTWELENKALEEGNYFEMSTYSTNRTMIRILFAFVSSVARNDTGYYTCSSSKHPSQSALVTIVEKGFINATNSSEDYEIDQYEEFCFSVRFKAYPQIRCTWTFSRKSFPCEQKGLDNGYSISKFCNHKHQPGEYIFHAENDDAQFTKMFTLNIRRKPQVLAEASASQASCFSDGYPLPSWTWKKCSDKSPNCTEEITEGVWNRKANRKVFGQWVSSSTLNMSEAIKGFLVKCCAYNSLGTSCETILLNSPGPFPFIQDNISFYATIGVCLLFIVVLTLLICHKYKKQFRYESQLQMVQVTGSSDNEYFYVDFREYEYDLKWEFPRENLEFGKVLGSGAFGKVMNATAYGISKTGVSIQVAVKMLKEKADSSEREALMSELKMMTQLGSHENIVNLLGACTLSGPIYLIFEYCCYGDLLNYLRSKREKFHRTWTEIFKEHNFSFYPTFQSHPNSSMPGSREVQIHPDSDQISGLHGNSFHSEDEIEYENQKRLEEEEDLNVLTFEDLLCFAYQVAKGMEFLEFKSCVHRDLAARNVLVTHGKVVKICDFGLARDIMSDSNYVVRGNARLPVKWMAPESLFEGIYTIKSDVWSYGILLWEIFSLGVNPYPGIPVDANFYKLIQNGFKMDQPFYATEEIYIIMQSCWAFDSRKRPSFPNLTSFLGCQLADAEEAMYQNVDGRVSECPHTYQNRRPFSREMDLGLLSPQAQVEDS
- protocolNotes: cell-based or functional assay

- binder: "human FLT3-ligand (S128A/S151A) human hingeless IgG1 fusion protein (SEQ ID NO:5) (Fc fusion, also called Aglyco-FLT3L ECD (S128A/S151A) hingeless hG1) TQDCSFQHSPISSDFAVKIRELSDYLLQDYPVTVASNLQDEELCGGLWRLVLAQRWMERLKTVAGSKMQGLLERVNTEIHFVTKCAFQPPPSCLRFVQTNIARLLQETSEQLVALKPWITRQNFARCLELQCQPDSSTLPPPWSPRPLEATAPTAPQGGPSVFLFPPKPKDTLMISRTPEVTCVVVDVSHEDPEVKFNWYVDGVEVHNAKTKPREEQYNSTYRVVSVLTVLHQDWLNGKEYKCKVSNKALPAPIEKTISKAKGQPREPQVYTLPPSREEMTKNQVSLTCLVKGFYPSDIAVEWESNGQPENNYKTTPPVLDSDGSFFLYSKLTVDKSRWQQGNVFSCSVMHEALHNHYTQKSLSLSPGK"
  EC50 (nM), AML5 proliferation: 0.078
- binder: "human FLT3-ligand human hingeless IgG1 fusion protein (SEQ ID NO:1) (Fc fusion, also called FLT3L ECD-hingeless hG1; hFLT3L ECD) TQDCSFQHSPISSDFAVKIRELSDYLLQDYPVTVASNLQDEELCGGLWRLVLAQRWMERLKTVAGSKMQGLLERVNTEIHFVTKCAFQPPPSCLRFVQTNISRLLQETSEQLVALKPWITRQNFSRCLELQCQPDSSTLPPPWSPRPLEATAPTAPQGGPSVFLFPPKPKDTLMISRTPEVTCVVVDVSHEDPEVKFNWYVDGVEVHNAKTKPREEQYNSTYRVVSVLTVLHQDWLNGKEYKCKVSNKALPAPIEKTISKAKGQPREPQVYTLPPSREEMTKNQVSLTCLVKGFYPSDIAVEWESNGQPENNYKTTPPVLDSDGSFFLYSKLTVDKSRWQQGNVFSCSVMHEALHNHYTQKSLSLSPGK"
  EC50 (nM), AML5 proliferation: 0.08
- binder: "human FLT3-ligand (Δ5 amino acid) human hingeless IgG1 fusion protein (SEQ ID NO:2) (Fc fusion, also called FLT3L ECD (Δ C-term 5aa (PTAPQ)) - hingeless hG1) TQDCSFQHSPISSDFAVKIRELSDYLLQDYPVTVASNLQDEELCGGLWRLVLAQRWMERLKTVAGSKMQGLLERVNTEIHFVTKCAFQPPPSCLRFVQTNISRLLQETSEQLVALKPWITRQNFSRCLELQCQPDSSTLPPPWSPRPLEATAGGPSVFLFPPKPKDTLMISRTPEVTCVVVDVSHEDPEVKFNWYVDGVEVHNAKTKPREEQYNSTYRVVSVLTVLHQDWLNGKEYKCKVSNKALPAPIEKTISKAKGQPREPQVYTLPPSREEMTKNQVSLTCLVKGFYPSDIAVEWESNGQPENNYKTTPPVLDSDGSFFLYSKLTVDKSRWQQGNVFSCSVMHEALHNHYTQKSLSLSPGK"
  EC50 (nM), AML5 proliferation: 0.083
- binder: "human FLT3-ligand (Δ10 amino acid) human hingeless IgG1 fusion protein (SEQ ID NO:7) (Fc fusion) TQDCSFQHSPISSDFAVKIRELSDYLLQDYPVTVASNLQDEELCGGLWRLVLAQRWMERLKTVAGSKMQGLLERVNTEIHFVTKCAFQPPPSCLRFVQTNISRLLQETSEQLVALKPWITRQNFSRCLELQCQPDSSTLPPPWSPRPGGPSVFLFPPKPKDTLMISRTPEVTCVVVDVSHEDPEVKFNWYVDGVEVHNAKTKPREEQYNSTYRVVSVLTVLHQDWLNGKEYKCKVSNKALPAPIEKTISKAKGQPREPQVYTLPPSREEMTKNQVSLTCLVKGFYPSDIAVEWESNGQPENNYKTTPPVLDSDGSFFLYSKLTVDKSRWQQGNVFSCSVMHEALHNHYTQKSLSLSPGK"
  EC50 (nM), AML5 proliferation: 0.071
